Target: Muscarinic acetylcholine receptor M2 and M4 (Homo sapiens) (UniProt P08173+P08172)
Experiment: Binding affinity (Ki) of cloned human Muscarinic acetylcholine receptor M4 to the binding affinity (Ki) of Muscarinic acetylcholine receptor M2
Assay type: protein assay
Readout name: Ratio

given_smiles=C[C@@H]1CN(C2CCN(C(=O)c3ccc(Cl)cc3Cl)CC2)CCN1[C@@H](C)c1ccc(S(=O)(=O)c2ccc3c(c2)OCO3)cc1 reported_measurement=7
given_smiles=C[C@@H]1CN(C2CCN(C(=O)c3sccc3Cl)CC2)CCN1[C@@H](C)c1ccc(S(=O)(=O)c2ccc3c(c2)OCO3)cc1 reported_measurement=7
given_smiles=CC(=O)Nc1ccccc1C(=O)N1CCC(N2CCN([C@@H](C)c3ccc(S(=O)(=O)c4ccc5c(c4)OCO5)cc3)[C@H](C)C2)CC1 reported_measurement=3
given_smiles=C[C@@H]1CN(C2CCN(C(=O)C3CC3)CC2)CCN1[C@@H](C)c1ccc(S(=O)(=O)c2ccc3c(c2)OCO3)cc1 reported_measurement=3

* * *

Target: Muscarinic acetylcholine receptor M2 and M5 (Homo sapiens) (UniProt P08172+P08912)
Sequence (P08172 whole entry, looked up): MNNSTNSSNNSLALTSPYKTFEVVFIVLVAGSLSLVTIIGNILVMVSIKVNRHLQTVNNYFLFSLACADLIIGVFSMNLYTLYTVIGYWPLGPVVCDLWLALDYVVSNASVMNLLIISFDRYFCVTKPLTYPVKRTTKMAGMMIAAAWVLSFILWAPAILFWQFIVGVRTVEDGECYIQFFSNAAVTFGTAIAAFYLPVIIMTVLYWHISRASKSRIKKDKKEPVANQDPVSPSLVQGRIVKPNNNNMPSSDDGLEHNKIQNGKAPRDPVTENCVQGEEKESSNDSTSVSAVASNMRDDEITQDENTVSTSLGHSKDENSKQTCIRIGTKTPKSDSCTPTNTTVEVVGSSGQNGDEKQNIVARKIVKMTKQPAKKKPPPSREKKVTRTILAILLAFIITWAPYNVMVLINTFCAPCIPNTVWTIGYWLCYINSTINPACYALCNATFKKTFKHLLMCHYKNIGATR
Sequence (P08912 whole entry, looked up): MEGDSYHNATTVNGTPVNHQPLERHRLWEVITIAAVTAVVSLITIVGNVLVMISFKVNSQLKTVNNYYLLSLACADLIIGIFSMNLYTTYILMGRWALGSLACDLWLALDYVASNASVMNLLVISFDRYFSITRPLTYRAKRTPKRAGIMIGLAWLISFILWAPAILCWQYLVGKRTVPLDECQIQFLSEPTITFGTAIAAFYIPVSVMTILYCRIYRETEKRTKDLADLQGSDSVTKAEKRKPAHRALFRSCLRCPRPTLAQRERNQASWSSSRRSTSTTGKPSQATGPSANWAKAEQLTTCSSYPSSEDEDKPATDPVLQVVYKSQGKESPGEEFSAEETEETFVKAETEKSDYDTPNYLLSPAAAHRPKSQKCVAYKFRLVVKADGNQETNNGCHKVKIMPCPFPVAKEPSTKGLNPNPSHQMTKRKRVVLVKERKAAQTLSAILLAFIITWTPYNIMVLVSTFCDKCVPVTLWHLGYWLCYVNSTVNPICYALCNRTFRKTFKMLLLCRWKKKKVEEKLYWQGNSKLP
Experiment: Binding affinity (Ki) of cloned human Muscarinic acetylcholine receptor M5 to the binding affinity (Ki) of Muscarinic acetylcholine receptor M2
Format: protein assay
Readout name: Ratio

given_smiles=C[C@@H]1CN(C2CCN(C(=O)c3cccc4c3OCO4)CC2)CCN1[C@@H](C)c1ccc(S(=O)(=O)c2ccc3c(c2)OCO3)cc1 experimental_target="Muscarinic acetylcholine receptor M2 and M5 (Homo sapiens) (UniProt P08172+P08912)" reported_measurement=80
given_smiles=C[C@@H]1CN(C2CCN(C(=O)c3ccccc3)CC2)CCN1[C@@H](C)c1ccc(S(=O)(=O)c2ccc3c(c2)OCO3)cc1 experimental_target="Muscarinic acetylcholine receptor M2 and M5 (Homo sapiens) (UniProt P08172+P08912)" reported_measurement=15
given_smiles=Cc1ccccc1C(=O)N1CCC(N2CCN([C@@H](C)c3ccc(S(=O)(=O)c4ccc5c(c4)OCO5)cc3)[C@H](C)C2)CC1 experimental_target="Muscarinic acetylcholine receptor M2 and M5 (Homo sapiens) (UniProt P08172+P08912)" reported_measurement=23
given_smiles=Cc1cccnc1C(=O)N1CCC(N2CCN([C@@H](C)c3ccc(S(=O)(=O)c4ccc5c(c4)OCO5)cc3)[C@H](C)C2)CC1 experimental_target="Muscarinic acetylcholine receptor M2 and M5 (Homo sapiens) (UniProt P08172+P08912)" reported_measurement=3
given_smiles=CC(=O)Nc1ccccc1C(=O)N1CCC(N2CCN([C@@H](C)c3ccc(S(=O)(=O)c4ccc5c(c4)OCO5)cc3)[C@H](C)C2)CC1 experimental_target="Muscarinic acetylcholine receptor M2 and M5 (Homo sapiens) (UniProt P08172+P08912)" reported_measurement=5
given_smiles=C[C@@H]1CN(C2CCN(C(=O)c3ccc(Cl)cc3Cl)CC2)CCN1[C@@H](C)c1ccc(S(=O)(=O)c2ccc3c(c2)OCO3)cc1 experimental_target="Muscarinic acetylcholine receptor M2 and M5 (Homo sapiens) (UniProt P08172+P08912)" reported_measurement=5
given_smiles=C[C@@H]1CN(C2CCN(C(=O)c3sccc3Cl)CC2)CCN1[C@@H](C)c1ccc(S(=O)(=O)c2ccc3c(c2)OCO3)cc1 experimental_target="Muscarinic acetylcholine receptor M2 and M5 (Homo sapiens) (UniProt P08172+P08912)" reported_measurement=45
given_smiles=C[C@@H]1CN(C2CCN(C(=O)c3ccccc3Cl)CC2)CCN1[C@@H](C)c1ccc(S(=O)(=O)c2ccc3c(c2)OCO3)cc1 experimental_target="Muscarinic acetylcholine receptor M2 and M5 (Homo sapiens) (UniProt P08172+P08912)" reported_measurement=25
given_smiles=C[C@@H]1CN(C2CCN(C(=O)c3ccccc3COC(=O)c3ccccc3)CC2)CCN1[C@@H](C)c1ccc(S(=O)(=O)c2ccc3c(c2)OCO3)cc1 experimental_target="Muscarinic acetylcholine receptor M2 and M5 (Homo sapiens) (UniProt P08172+P08912)" reported_measurement=47
given_smiles=C[C@@H]1CN(C2CCN(C(=O)c3ccccc3O)CC2)CCN1[C@@H](C)c1ccc(S(=O)(=O)c2ccc3c(c2)OCO3)cc1 experimental_target="Muscarinic acetylcholine receptor M2 and M5 (Homo sapiens) (UniProt P08172+P08912)" reported_measurement=18
given_smiles=C[C@@H]1CN(C2CCN(C(=O)c3ccccc3Oc3ccccc3)CC2)CCN1[C@@H](C)c1ccc(S(=O)(=O)c2ccc3c(c2)OCO3)cc1 experimental_target="Muscarinic acetylcholine receptor M2 and M5 (Homo sapiens) (UniProt P08172+P08912)" reported_measurement=6
given_smiles=C[C@@H]1CN(C2CCN(C(=O)c3ccccc3N)CC2)CCN1[C@@H](C)c1ccc(S(=O)(=O)c2ccc3c(c2)OCO3)cc1 experimental_target="Muscarinic acetylcholine receptor M2 and M5 (Homo sapiens) (UniProt P08172+P08912)" reported_measurement=24
given_smiles=COc1ccccc1C(=O)N1CCC(N2CCN([C@@H](C)c3ccc(S(=O)(=O)c4ccc5c(c4)OCO5)cc3)[C@H](C)C2)CC1 experimental_target="Muscarinic acetylcholine receptor M2 and M5 (Homo sapiens) (UniProt P08172+P08912)" reported_measurement=72
given_smiles=Cc1cccc(C)c1C(=O)N1CCC(N2CCN([C@@H](C)c3ccc(S(=O)(=O)c4ccc5c(c4)OCO5)cc3)[C@H](C)C2)CC1 experimental_target="Muscarinic acetylcholine receptor M2 and M5 (Homo sapiens) (UniProt P08172+P08912)" reported_measurement=2
given_smiles=C[C@@H]1CN(C2CCN(C(=O)C3CC3)CC2)CCN1[C@@H](C)c1ccc(S(=O)(=O)c2ccc3c(c2)OCO3)cc1 experimental_target="Muscarinic acetylcholine receptor M2 and M5 (Homo sapiens) (UniProt P08172+P08912)" reported_measurement=23
given_smiles=C[C@@H]1CN(C2CCN(C(=O)c3ccc(Cl)c(Cl)c3)CC2)CCN1[C@@H](C)c1ccc(S(=O)(=O)c2ccc3c(c2)OCO3)cc1 experimental_target="Muscarinic acetylcholine receptor M2 and M5 (Homo sapiens) (UniProt P08172+P08912)" reported_measurement=7

* * *

Target: Muscarinic acetylcholine receptors; M1 & M2 (Homo sapiens) (UniProt P11229+P08172)
Experiment: Selectivity ratio of binding affinity (Ki) of cloned human muscarinic acetylcholine receptor M1 to the binding affinity (Ki) of muscarinic acetylcholine receptor M2
Type: protein assay
Reported Ratio values are given for each entry in this list.
Readout name: Ratio

given_smiles=C[C@@H]1CN(C2CCN(C(=O)c3ccccc3N)CC2)CCN1[C@@H](C)c1ccc(S(=O)(=O)c2ccc3c(c2)OCO3)cc1 reported_measurement=239
given_smiles=COc1cc2c(cc1S(=O)(=O)c1ccc([C@H](C)N3CCN(C4CCN(C(=O)c5ccccc5C)CC4)C[C@H]3C)cc1)OCO2 reported_measurement=2
given_smiles=COc1ccc(S(=O)(=O)c2ccc([C@H](C)N3CCN(C4CCN(C(=O)c5ccccc5C)CC4)C[C@H]3C)cc2)c(OC)c1OC reported_measurement=1
given_smiles=Cc1ccccc1C(=O)N1CCC(N2CCN([C@@H](C)c3ccc(S(=O)(=O)c4cccc(C(F)(F)F)c4)cc3)[C@H](C)C2)CC1 reported_measurement=170
given_smiles=C[C@@H]1CN(C2CCN(C(=O)c3ccc(Cl)cc3Cl)CC2)CCN1[C@@H](C)c1ccc(S(=O)(=O)c2ccc3c(c2)OCO3)cc1 reported_measurement=66
given_smiles=C[C@@H]1CN(C2CCN(C(=O)C3CC3)CC2)CCN1[C@@H](C)c1ccc(S(=O)(=O)c2ccc3c(c2)OCO3)cc1 reported_measurement=12
given_smiles=COc1ccccc1C(=O)N1CCC(N2CCN([C@@H](C)c3ccc(S(=O)(=O)c4ccc5c(c4)OCO5)cc3)[C@H](C)C2)CC1 reported_measurement=333

* * *

Target: Muscarinic acetylcholine receptors; M1 & M2 (Homo sapiens) (UniProt P11229+P08172)
Assay: Selectivity ratio of binding affinity (Ki) of cloned human muscarinic acetylcholine receptor M1 to the binding affinity (Ki) of muscarinic acetylcholine receptor M2
Assay type: protein assay
Use Yes when the recorded Ratio is no lower than 40; use No when it is lower.

given_smiles=C[C@@H]1CN(C2CCN(C(=O)c3sccc3Cl)CC2)CCN1[C@@H](C)c1ccc(S(=O)(=O)c2ccc3c(c2)OCO3)cc1 class_label=Yes
given_smiles=Cc1cccc(S(=O)(=O)c2ccc([C@H](C)N3CCN(C4CCN(C(=O)c5ccccc5C)CC4)C[C@H]3C)cc2)c1 class_label=Yes
given_smiles=COc1ccc(S(=O)(=O)c2ccc([C@H](C)N3CCN(C4CCN(C(=O)c5ccccc5C)CC4)C[C@H]3C)cc2)c2c1OCO2 class_label=Yes
given_smiles=C[C@@H]1CN(C2CCN(C(=O)c3ccccc3Cl)CC2)CCN1[C@@H](C)c1ccc(S(=O)(=O)c2ccc3c(c2)OCO3)cc1 class_label=Yes
given_smiles=C[C@@H]1CN(C2CCN(C(=O)c3cccc4c3OCO4)CC2)CCN1[C@@H](C)c1ccc(S(=O)(=O)c2ccc3c(c2)OCO3)cc1 class_label=Yes
given_smiles=COc1c(S(=O)(=O)c2ccc([C@H](C)N3CCN(C4CCN(C(=O)c5ccccc5C)CC4)C[C@H]3C)cc2)ccc2c1OCO2 class_label=No
given_smiles=Cc1ccccc1C(=O)N1CCC(N2CCN([C@@H](C)c3ccc(S(=O)(=O)c4ccc5c(c4)OCO5)cc3)[C@H](C)C2)CC1 class_label=Yes
given_smiles=C[C@@H]1CN(C2CCN(C(=O)c3ccccc3)CC2)CCN1[C@@H](C)c1ccc(S(=O)(=O)c2ccc3c(c2)OCO3)cc1 class_label=No
given_smiles=C[C@@H]1CN(C2CCN(C(=O)c3ccccc3Oc3ccccc3)CC2)CCN1[C@@H](C)c1ccc(S(=O)(=O)c2ccc3c(c2)OCO3)cc1 class_label=No
given_smiles=Cc1cccc(C)c1C(=O)N1CCC(N2CCN([C@@H](C)c3ccc(S(=O)(=O)c4ccc5c(c4)OCO5)cc3)[C@H](C)C2)CC1 class_label=No
given_smiles=COc1ccc(S(=O)(=O)c2ccc([C@H](C)N3CCN(C4CCN(C(=O)c5ccccc5C)CC4)C[C@H]3C)cc2)cc1 class_label=Yes
given_smiles=C[C@@H]1CN(C2CCN(C(=O)c3ccc(Cl)c(Cl)c3)CC2)CCN1[C@@H](C)c1ccc(S(=O)(=O)c2ccc3c(c2)OCO3)cc1 class_label=No
given_smiles=CC(=O)Nc1ccccc1C(=O)N1CCC(N2CCN([C@@H](C)c3ccc(S(=O)(=O)c4ccc5c(c4)OCO5)cc3)[C@H](C)C2)CC1 class_label=No
given_smiles=C[C@@H]1CN(C2CCN(C(=O)c3ccccc3COC(=O)c3ccccc3)CC2)CCN1[C@@H](C)c1ccc(S(=O)(=O)c2ccc3c(c2)OCO3)cc1 class_label=Yes
